target: T1, human serum albumin (human, UniProt P02768 25-609); assay: phage competition ELISA: signal of well with 2 µM HSA competitor / signal of well with no competitor
T1 construct: HSA used in ELISA and SPR was bought (Sigma); also called HSA
PARAMETER MEASURED: Ratio 2 µM/0 µM HSA (ratio)

>>> quantitative_readout("AARSWDFDVFGGGTPVGG [59H12]")
0.87
>>> quantitative_readout("AARYWDYDVFGGGTPVGG (also called EXP56E4) [PMP56E4]")
0.82
>>> quantitative_readout("AARDWDFDVFGGGTPVGG (also called EXP59C2) [59C2]")
0.91
>>> quantitative_readout("AARYWDFDVFGGGTPVGG [59F2]")
0.69
